Reported CC50 at 192 h values follow for various compounds
Experiment: Cytotoxicity against human HepG2(2.2.15) cells after 8 days by MTT assay
Format: cell-based

# annotated cases, reported CC50 at 192 h shown
CC(C)CCNCCc1c[nH]c2ccccc12    > 25 µM
CC(C)C[N+]([O-])(CCc1c[nH]c2ccccc12)CC(C)C    > 100 µM
CC(C)CC[N+]([O-])(CCc1c[nH]c2ccccc12)CCC(C)C    77.6 µM

Could you tell me which CC50 at 192 h is on file for CCN(CCc1c[nH]c2ccccc12)CCC(C)C ?
> 25 µM

Could you tell me which CC50 at 192 h is on file for C[N+](C)([O-])CCc1c[nH]c2ccccc12 ?
> 100 µM

Could you tell me which CC50 at 192 h is on file for CCC[N+]([O-])(CCC)CCc1c[nH]c2ccccc12 ?
> 100 µM

Could you tell me which CC50 at 192 h is on file for COc1cc(OC)c(OC)cc1CN(CCc1c[nH]c2ccccc12)Cc1cc(OC)c(OC)cc1OC ?
21 µM

Could you tell me which CC50 at 192 h is on file for CC(C)CCN(CCc1c[nH]c2ccccc12)CC(C)C ?
> 25 µM

Could you tell me which CC50 at 192 h is on file for C[N+](C)([O-])CCc1c[nH]c2ccc(Br)cc12 ?
> 25 µM

Could you tell me which CC50 at 192 h is on file for [O-][N+](CCc1c[nH]c2ccccc12)(CC1CCCCC1)CC1CCCCC1 ?
23.1 µM

Could you tell me which CC50 at 192 h is on file for c1coc(CN(CCc2c[nH]c3ccccc23)Cc2ccco2)c1 ?
27.3 µM

Could you tell me which CC50 at 192 h is on file for c1csc(CN(CCc2c[nH]c3ccccc23)Cc2cccs2)c1 ?
> 33.3 µM

Could you tell me which CC50 at 192 h is on file for [O-][N+](CCc1c[nH]c2ccccc12)(Cc1ccccc1)Cc1ccccc1 ?
> 100 µM

Could you tell me which CC50 at 192 h is on file for c1ccc(CN(CCc2c[nH]c3ccccc23)Cc2ccccn2)nc1 ?
5.8 µM

Could you tell me which CC50 at 192 h is on file for [O-][N+](CCc1c[nH]c2ccccc12)(Cc1cccs1)Cc1cccs1 ?
> 100 µM

Could you tell me which CC50 at 192 h is on file for CC(C)CCN(C)CCc1c[nH]c2ccccc12 ?
> 25 µM
